PKC alpha kinase (Homo sapiens, UniProt P17252): reported Ki for various compounds.

Input: Write down the reported Ki of Cc1cn(C2CCNCC2)nc1-c1n[nH]c2ncccc12 [Compound 5] , test system: PKC alpha kinase (Homo sapiens, UniProt P17252).
Output: > 1.25 µM

Continuing:
Input: # returns recorded Ki (system: PKC alpha kinase (Homo sapiens, UniProt P17252)) for Cc1sc(N2CCN[C@@H](CC(C)C)C2)nc1-c1n[nH]c2ncccc12 [Compound 2]
Output: > 1.25 µM

====

# System: PKC delta kinase (Homo sapiens, UniProt Q05655)
# Sequence (Q05655 whole entry): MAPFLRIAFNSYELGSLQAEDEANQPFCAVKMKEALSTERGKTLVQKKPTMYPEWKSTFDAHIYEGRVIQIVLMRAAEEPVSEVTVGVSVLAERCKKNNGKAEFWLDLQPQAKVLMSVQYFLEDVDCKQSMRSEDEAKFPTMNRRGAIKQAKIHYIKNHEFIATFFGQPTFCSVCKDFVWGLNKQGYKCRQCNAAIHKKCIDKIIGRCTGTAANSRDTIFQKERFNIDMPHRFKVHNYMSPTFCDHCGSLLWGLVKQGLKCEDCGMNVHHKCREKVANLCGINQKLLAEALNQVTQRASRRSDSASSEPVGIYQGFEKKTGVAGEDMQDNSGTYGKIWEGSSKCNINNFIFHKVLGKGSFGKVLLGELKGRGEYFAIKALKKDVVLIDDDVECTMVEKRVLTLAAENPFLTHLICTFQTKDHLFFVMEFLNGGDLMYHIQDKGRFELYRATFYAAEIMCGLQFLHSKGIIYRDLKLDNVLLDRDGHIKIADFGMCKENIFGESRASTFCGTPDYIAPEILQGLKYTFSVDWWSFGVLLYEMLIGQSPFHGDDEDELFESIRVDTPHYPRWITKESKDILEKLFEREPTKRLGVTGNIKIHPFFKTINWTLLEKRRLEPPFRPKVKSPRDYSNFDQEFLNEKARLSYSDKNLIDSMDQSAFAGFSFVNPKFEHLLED
# Assay Method Text: PKC delta kinase coupled-enzyme (NADH consumption) Ki assay
# Experimental Conditions: 150 μM ATP, 46 nM PKC delta kinase, 30° C.
pKi: −log10 of the molar value.
Listing: pKi of selected compounds

Here's what some known entries look like.
Input: For CC(C)C[C@H]1CN(c2csc(-c3n[nH]c4ncccc34)n2)CCN1 [Compound 3] , what is its reported pKi?
Output: > 5.55

Input: Field request: pKi | item: Cc1cn(C2CCNCC2)nc1-c1n[nH]c2ncccc12 [Compound 5]
Output: < 5.70

Input: If you can, please state the reported pKi value of c1cnc2[nH]nc(-c3nn(C4CCNCC4)c4ccccc34)c2c1 [Compound 4] .
Output: > 5.55

Input: Suppose we examine the compound CC(C)C[C@H]1CN(c2cn(C)c(-c3n[nH]c4ncccc34)n2)CCN1 [Compound 6] ; what pKi value has been reported?
Output: < 5.70

Further cases:
Input: Which value of pKi has been reported for Cc1sc(N2CCN[C@@H](CC(C)C)C2)nc1-c1n[nH]c2ncccc12 [Compound 2] in the records?
Output: < 5.70
